assay.readout: melting point (°C)

Reference set (3 entries):
1. COc1nc2ccc(S(C)(=O)=O)cc2cc1C(c1ccc(Cl)cc1)C1(O)CCNCC1Cc1cccc[n+]1[O-] (centres unmarked) [Compound 65] | 240
2. COc1nc2ccc(Br)cc2cc1C(c1ccc(Cl)cc1)C1(O)CCNC(C)C1 (centres unmarked) [Compound 11] | 143
3. COc1nc2ccc(Cl)cc2cc1C(c1ccc(Cl)cc1)C1(O)CCNCC1c1cccnc1 (centres unmarked) [Compound 445] | 154

a. COc1nc2ccc(Br)cc2cc1C(c1ccc(Cl)cc1)C1(O)CCNC(Cc2ccc(F)cc2)C1 (centres unmarked) [Compound 340]
b. COc1nc2ccc(-c3cccnc3)cc2cc1C(c1cccc(Cl)c1)C1(O)CCNC(Cc2ccccc2)C1 (centres unmarked) [Compound 15]
Prompt: Which of the two items, a and b , has the greater recorded melting point? To answer, give the label that identifies your chosen option.
Completion: b
(b: 220 °C, a: 132 °C)
